Assay: folding stability dG unfold (combined trypsin and chymotrypsin); higher = more stable
Outcome label depends on folding stability dG unfold relative to 3 kcal/mol: at/above gives MET, below gives NOT MET.

Check out these entries, answers already filled in.
SAGMPETITIKIRNPETGKLYEIEIEKVDGEVKVTIRDVETGKERREITMTPEEVRELLKELGFEVEEVSAG [r5_291_TrROS_Hall]: NOT MET
SAGGSAGGSATTVTVESDPATGTRFVYETDEKNPGLLKVTKVTTLPDGSVVVETGYISPEKLSAGGSAGGSA [r18_505_JUSTAS]: NOT MET
SAGGSAGGSAGMVLPRPDGSLVVITEHPDGTVTVTFAPPDKPITIEVPKEEPVDIRVFPLSAGGSAGGSAGG [r11_164_TrMRF]: NOT MET

Q: State whether the measured folding stability dG unfold reaches 3 kcal/mol, counting equality as reaching it, for SAGGSAGGGPPSPVQTSTTSFSVSGDSSVTNVTVVTLPDGSLLVETTVFPSSGGSVSSLSSIPASAGGSAGG [r6_670_JUSTAS]
Ans: NOT MET

Q: State whether the measured folding stability dG unfold reaches 3 kcal/mol, counting equality as reaching it, for SAGGSAGGSKKKPYIIKIYYKDPKTKKKSKKEILVSGKVKNPEKFAKEAAKKLGPVGKVEFKPSAGGSAGGS [r12_942_TrMRF]
Ans: NOT MET

Q: State whether the measured folding stability dG unfold reaches 3 kcal/mol, counting equality as reaching it, for SAGGSAGGSAGGPKGYFRIRIEIPNGQKREIWFPPDDAEEWVKSLGIPEENVKITKIEPYSAGGSAGGSAGG [r7_211_TrROS]
Ans: NOT MET

Q: State whether the measured folding stability dG unfold reaches 3 kcal/mol, counting equality as reaching it, for SAGMTALFTDSSGKEVTFSHPNLELTVDPETGVVSAYEPESNLKVEVKVAPDKVTVTVYSGSSSKEIPLSAG [r5_786_JUSTAS]
Ans: NOT MET

* * *

Test: folding stability dG unfold from chymotrypsin proteolysis; higher = more stable
Provide the recorded folding stability dG unfold for the entries that follow.
Numbers only, in kcal/mol.

Consider the reported folding stability dG unfold for these sequences:
SAGKKTIIIKIPPNMTVEELKKALKNLKPNEKVTITVNGKKYTITVKDGKIKITFPENVKNMILIIEVKSAG [r5_373_TrROS_Hall]: 2.54
SAGGNINDIAKKLGLPPGGMIMIKDFSLEWHRMPMRVPEEDNDKPKEEKEVPMPMYKAEIKISLFPADSAGG [r13_482_TrROS]: 2
SAGGMVTVSTPLGLGYSEEIKARMEEYVKAGDPEAAKELAQEYIDAKYPPKWPVEISFHENPAISKKSAGGS [r8_48_JUSTAS]: -0.209

// moving on: another record for folding stability dG unfold
folding stability dG unfold for SAGKKQEVTIMIPIRGPAQAREQVEEFANDFPIKPTRVHPNPNKNHYWVMVTMKVPGAKIKIMIWIPPSAGG [r19_262_TrROS] is 4.19

* * *

Assay: folding stability dG unfold from chymotrypsin proteolysis; higher = more stable
measured parameter: folding stability dG unfold (kcal/mol)
One number for each entry, in kcal/mol.

Consider the reported folding stability dG unfold for these sequences:
SAGAKAEPGPSGRLRIYLPDEPIELDVTEDGTVTLTFPNGEKVEFPVEKEKAALVLAELNALGAVVVPQSAG [r5_753_TrMRF]: 1.09
SAGGSAGGSAKEIKLKITKVTFTENEDGTLTATFELEDGYRVTIKFNKKTNKVEIKIEPLPSAGGSAGGSAG [r3_438_TrROS_Hall]: 4.12
SAGGSAGGDKNAKPQPIMIAIEIYNPNGRKQEHTFPFESLDDAKEFIEDWLPPGYQVKVDIYPVSAGGSAGG [r6_290_TrROS]: 0.709

Below are some sequences; for each one, tell me its folding stability dG unfold.
1. SAGPKIEIHYTPNGIHLTIELPGEWIWMMIPVPPGEKVKIRLPGNGLEITARPYDDYVMIRIRIPDAPSAGG [r19_384_TrROS]
2. SAGGIKPDEPAIVLVKIPLPPGPNPEGGLEGPVLKTFPLEVGFPSLEELIEAVKELFPEGTEVEIIPSAGGS [r16_282_TrMRF]
3. SAGGSAGGSKPELVIPITFPVLVKNPLDGKIYPVKVEIHIFYYPDKPIIEITLINPDGKPFPFSAGGSAGGS [r12_283_TrMRF]
4. SAGGSAGGSAGSMFMIMIEYDPPGYIKVSINRYKMGPDGDFEPVEPETHEIPIPPGQPFFSAGGSAGGSAGG [r11_440_TrROS]
5. SAGGSAGGSAGGMVVLKTPERFVVVESVEVYVPVRDPDGTPVRWSPVRTEVRVTVIPPLASAGGSAGGSAGG [r7_3_JUSTAS]

Ans:
1. 5.3
2. -0.431
3. 1.67
4. 2.36
5. 2.13

Below are some sequences; for each one, tell me its folding stability dG unfold.
1. SAGLDEEAYRNGLTVYLTSRLPGPDVLRPQWFDVTPEGDGFTYNVALPDGVPVNLEVLSRKVLSPEELLSAG [r14_427_JUSTAS]
2. SAGGAPLVPVSTETYTVKDSKGNEVTITIETLPDGSYRITITYPNGEVKEYEFPSKEEAEKLEITVNPSAGG [r13_109_JUSTAS]
3. SAGGSATLTLEAEFRLEDGTTVRVRVEVSPDGTVRIEVEVLPAPPPPPKVEVKEVFTTADGRKVLLSAGGSA [r2_78_TrROS_Hall]
4. SAKKENSVPVTIEIELEFDSIEKAKKAIEKLAAEIEKETGAKIEIKVEIEEKENNYIVKVELTIYLPKESAG [r14_626_TrMRF]
5. SAGMKIKVTIERGGDRAERILPPEEAKALLDKYPEDGEIPLDLEGEEVTVKIEKTPPALPTEEAIKELKSAG [r5_669_JUSTAS]
6. KTIEIWIPMPMGQAETFVKSLARKLGLPPDDYKVDNVEMQPNKDGWPYVKMEIKLPNNGKEIEIIMPPGWFS [r1_21_TrROS]

Ans:
1. 0.149
2. 3.66
3. 1.62
4. 1.55
5. 0.11
6. 2.6

* * *

Test: folding stability dG unfold from trypsin proteolysis; higher = more stable
Outcome label depends on folding stability dG unfold relative to 2 kcal/mol: at/above gives 1 (yes), below gives 0 (no).

Check out these entries, answers already filled in.
SMEKVKAKPAGEVTFVFDNEDPSLTPEQQVELVEKELEKLPELKIYEVEAEVDLETGKVTIKVKLLVEEVSA [r9_1001_TrMRF]: 0 (no)
SAGGFLEAIKNGKPVIFHVLVKHPGSGEVEEYPILVHPDKPIDLEKLIKELFPEDFEAEIFVSDFGFSAGGS [r8_127_TrMRF]: 0 (no)

Q: State whether the measured folding stability dG unfold reaches 2 kcal/mol, counting equality as reaching it, for SAGGSMTMTVEIHYPDGTVETRTVPYAPDDPAAAIAAVKAEVEARGGEVLAVETRDGVVTVKALVPPSAGGS [r16_662_JUSTAS]
Ans: 1 (yes)

Q: State whether the measured folding stability dG unfold reaches 2 kcal/mol, counting equality as reaching it, for SAGGSAGSMSEIEGLTVLEEREEPDPATGTTVPTLVVRDPEKGELYVITATTDPATGKPTYSFDLVSAGGSA [r15_170_JUSTAS]
Ans: 0 (no)

Q: State whether the measured folding stability dG unfold reaches 2 kcal/mol, counting equality as reaching it, for SAGGSAGGSAGGLPKPVTVTLSRPEGGETLTLTFPSGTTPEEVRAAVEAEPDLSILSISSSAGGSAGGSAGG [r7_624_JUSTAS]
Ans: 0 (no)

Q: State whether the measured folding stability dG unfold reaches 2 kcal/mol, counting equality as reaching it, for SMVIEPKPDGTVTVTLPSSLPDLPREEVEAIVREALPPGASLGDSITVSRDPETGEVTVTAPVKFPPELASA [r9_1011_JUSTAS]
Ans: 0 (no)

* * *

Provide the recorded folding stability dG unfold for the entries that follow.
Assay: folding stability dG unfold from chymotrypsin proteolysis; higher = more stable
Answers are plain numbers, in kcal/mol.

Consider the reported folding stability dG unfold for these sequences:
SAGGSAGGSAPMVLLLEFDSPEEATEAAKKIAEEFEKLGAKVEVEIFKPPEDKYLVLIRIDSAGGSAGGSAG [r3_211_TrMRF]: 3.91
SAGGSAGGSAGGDPDDKPPKIEWKPIEYSFYLPNGWMISDEIWVFPDNGAILISIEIMPSAGGSAGGSAGGS [r10_881_TrROS]: 3.67
SAGGKKEVILVIEIDLPESEEELLEEAERLAKELAELLGKEREVEVEVIEKDGKLIIVLRINGKEIVLSAGG [r13_845_TrROS_Hall]: 2.68
SAGGSAGGSAGGGMVIVTREPENLTFTVYREDPSTGKLRRIGTFPVSPDELEKVLALLSSAGGSAGGSAGGS [r10_275_JUSTAS]: 2.47
SAGGSAGGSAKYLVVGGKVIEIPSGGDAKIETTKDDRVKVTIDLPDDRKLEFTFPVPKWVGSAGGSAGGSAG [r3_207_TrMRF]: 0.215
SAGGSAGGKPKPVLRTFEVRDPATGELYKVELVVLDDGSVRALVTRRDGRKREFTFDAPASLILSAGGSAGG [r6_588_TrMRF]: 2.08

Below are some sequences; for each one, tell me its folding stability dG unfold.
1. SAGGSAGGSAGGMVKKTYEKKKPPGSMEYVTEKEYDPKTNTVKTTTVPVSEYKNIPNKNSAGGSAGGSAGGS [r10_1077_JUSTAS]
2. SGMTIEVEKEIEIYDPEKGVKIGSVKVKVLVPTSYSPEEIPEIAEKEIKKAKEELEKPEPPEVNEDGTLKSA [r9_454_JUSTAS]
3. SAGGWRYILRQIREAAKNGEEVTINFPPGMNPSFLLSWIRKENGAEVKPITVKPNPNGYGTINIKVKSAGGS [r16_318_TrROS]
4. SAGKVKIVKIDKGKNKITIEFYDDGKKIATIPFPPNFPNTKVIAEVNEDGSIKVTFISGDKPIEITIDASAG [r5_533_TrMRF]
5. SAGGKKIEIKEENGSLVIKVDGYLVTIEPIDGKLVATVVKKDKKTKKWKIVETKILTLDEILELLKKSAGGS [r8_174_TrROS_Hall]
6. SAGMTVEELKAQPKNATVTSVSRDPSTGLYTVTIERPDSNGKWVTHTLTLTGPEAVAAAVAAGLPSLAASAG [r5_905_JUSTAS]
7. SAGGSAGGSAGMKDNLVVTRTYTLPDDTVLVTRATFDSNPELVTVDVTEVPLSDVAPDAVSAGGSAGGSAGG [r11_493_TrMRF]
8. SAGGSAGGATTEINLPLKVPGSGVTITKMTYDPNKDVYFVTATFPDGTKKTIKVKSLEELKKLLSAGGSAGG [r6_548_JUSTAS]

Ans:
[-0.0965, 0.751, 2.02, 2.64, 3.03, 2.46, 0.514, 2.52]
